System: Mycobacterium tuberculosis
Experiment: Antitubercular activity against Mycobacterium tuberculosis H37Rv in Middlebrook 7H9 broth with butyrate after 7 to 14 days by broth microdilution method
Assay type: functional
RECORDED_METRIC: MIC99 (µM)
The reply should be a number in µM, with the unit left off.

[Q] Answer with the recorded MIC99 of CC(=O)c1ccccc1C(=O)Nc1nc(-c2ccccn2)cs1 only.
[A] 12.5

[Q] Using known records, supply MIC99 for O=C(Nc1nc(-c2ccccn2)cs1)c1ccco1
[A] 6.3

[Q] Report MIC99, nothing else, for this compound: CC(=O)c1cccc(C(=O)Nc2nc(-c3ccccn3)cs2)c1
[A] 0.19

[Q] State its MIC99: c1ccc(Nc2nc(-c3ccccn3)cs2)cc1
[A] 12.5

[Q] Report MIC99 for Cc1ccccc1C(=O)Nc1nc(-c2ccccn2)cs1
[A] 0.19

[Q] For the compound CC(=O)c1ccc(C(=O)Nc2nc(-c3ccccn3)cs2)cc1 , give its reported MIC99.
[A] 0.19

[Q] Assign MIC99 to the following record: Cc1ccc(Nc2nc(-c3ccccn3)cs2)cc1
[A] 12.5

[Q] Consider the compound O=C(Nc1nc(-c2ccccn2)cs1)c1ccsc1 . State its measured MIC99.
[A] 3.1

[Q] Report measured MIC99; entry is Cc1cccc(Nc2nc(-c3ccccn3)cs2)n1
[A] 3.1

[Q] Identify the reported MIC99 for the following entry. O=C(Nc1nc(-c2ccccn2)cs1)c1cccc(Cl)c1
[A] 0.024

[Q] Report MIC99 for COc1ccccc1C(=O)Nc1nc(-c2ccccn2)cs1
[A] 3.1

[Q] Give a short answer stating reported MIC99 for c1ccc(Nc2nc(-c3ccccn3)cs2)nc1 .
[A] 0.39

[Q] Supply recorded MIC99 for O=C(Nc1nc(-c2ccccn2)cs1)c1cccc(F)c1 here.
[A] 0.098

[Q] Supply MIC99 value. Item: Cc1ccc(Nc2nc(-c3ccccn3)cs2)c(C)c1
[A] 12.5

[Q] Assign MIC99 to the following record: Cc1cccc(C)c1Nc1nc(-c2ccccn2)cs1
[A] 12.5

[Q] Provide only the value of recorded MIC99 for Cc1cccc(Nc2nc(-c3ccccn3)cs2)c1C
[A] 12.5

[Q] Find the measured MIC99 of O=C(Nc1nc(-c2ccccn2)cs1)c1c(F)cccc1Cl and report it.
[A] 0.39

[Q] Give MIC99 for the following compound: O=C(Nc1nc(-c2ccccn2)cs1)c1ccc(Cl)cc1
[A] 0.78

[Q] // fetch MIC99 given entry O=C(Nc1nc(-c2ccccn2)cs1)c1cccc(Br)c1
[A] 0.024

[Q] Provide measured MIC99 value, entry: O=C(Nc1nc(-c2ccccn2)cs1)c1ccncc1
[A] 3.1

[Q] Give MIC99 for Clc1ccc(Nc2nc(-c3ccccn3)cs2)nc1
[A] 1.6

[Q] Complete the entry with MIC99 for CCCC(=O)Nc1nc(-c2ccccn2)cs1
[A] 25

[Q] For the compound O=C(Nc1nc(-c2ccccn2)cs1)c1ccccc1O , report MIC99.
[A] 1.6

[Q] Write down MIC99 measured for item COc1ccc(C(=O)Nc2nc(-c3ccccn3)cs2)cc1
[A] 0.19

[Q] Tell me its MIC99 given CCCCCCCCCC(=O)Nc1nc(-c2ccccn2)cs1 as the entry.
[A] 3.1

[Q] For the compound FC(F)(F)c1ccccc1Nc1nc(-c2ccccn2)cs1 , give its measured MIC99 value.
[A] 6.3

[Q] Identify the reported MIC99 for the following entry. COc1ccc(Nc2nc(-c3ccccn3)cs2)c(OC)c1
[A] 6.3

[Q] Report MIC99, nothing else, for this compound: O=C(Nc1nc(-c2ccccn2)cs1)c1ccoc1
[A] 6.3

[Q] Give the reported value of MIC99 for this record: FC(F)(F)c1ccc(Nc2nc(-c3ccccn3)cs2)cc1
[A] 12.5

[Q] Entry O=C(Nc1nc(-c2ccccn2)cs1)c1cccnc1 needs its MIC99 filled in; supply it.
[A] 3.1

[Q] Give a short answer stating reported MIC99 for Oc1ccccc1Nc1nc(-c2ccccn2)cs1 .
[A] 25

[Q] Item O=C(Nc1nc(-c2ccccn2)cs1)c1cc(F)ccc1F : provide MIC99
[A] 0.19

[Q] Supply MIC99 value. Item: Cc1ccc(C(=O)Nc2nc(-c3ccccn3)cs2)cc1
[A] 0.19

[Q] Specify MIC99 for O=C(Nc1nc(-c2ccccn2)cs1)C1CCCCC1 and stop.
[A] 3.1

[Q] In one line, give reported MIC99 of the entry O=C(Nc1nc(-c2ccccn2)cs1)c1cc(F)cc(F)c1 .
[A] 0.098

[Q] Kindly indicate its recorded MIC99. Item: Fc1cccc(Nc2nc(-c3ccccn3)cs2)c1
[A] 25

[Q] Identify the reported MIC99 for the following entry. O=C(Nc1nc(-c2ccccn2)cs1)c1ccccc1
[A] 0.19

[Q] Note down MIC99 recorded for O=C(Nc1nc(-c2ccccn2)cs1)c1ccc(F)c(F)c1
[A] 3.1

[Q] Could you please provide reported MIC99 for O=C(Nc1nc(-c2ccccn2)cs1)c1ccccn1 ? Thanks!
[A] 3.1

[Q] Specify MIC99 for Cc1cccc(C(=O)Nc2nc(-c3ccccn3)cs2)c1 and stop.
[A] 0.049

[Q] State its MIC99 for this compound: Fc1ccc(Nc2nc(-c3ccccn3)cs2)cc1
[A] 25

[Q] Specify reported MIC99 for the compound shown: Cc1ccccc1Nc1nc(-c2ccccn2)cs1
[A] 12.5

[Q] Identify the reported MIC99 for the following entry. O=C(Nc1nc(-c2ccccn2)cs1)C1CCC1
[A] 6.3

[Q] Note MIC99 for the compound shown: O=C(Nc1nc(-c2ccccn2)cs1)c1ccccc1F
[A] 0.39

[Q] Find the measured MIC99 of O=C(Nc1nc(-c2ccccn2)cs1)c1ccc(Br)cc1 and report it.
[A] 0.098

[Q] Supply measured MIC99 of FC(F)(F)c1cccc(Nc2nc(-c3ccccn3)cs2)c1 in your reply.
[A] 25

[Q] Find the measured MIC99 of O=C(Nc1nc(-c2ccccn2)cs1)c1c(F)cccc1F and report it.
[A] 0.78

[Q] Could you please provide reported MIC99 for O=C(Nc1nc(-c2ccccn2)cs1)c1cccc(OCc2ccccc2)c1 ? Thanks!
[A] 0.049

---

System: Vero
Assay: Cytotoxicity against african green monkey Vero cells after 72 hrs by MTT assay
Type: cell-based
Details: Chlorocebus sabaeus
Kindly state EC50 for each of the entries shown.
Respond numerically; units are nM and should not be typed.

[Q] Supply recorded EC50 for CC(=O)c1cccc(C(=O)Nc2nc(-c3ccccn3)cs2)c1 here.
[A] 1500

[Q] Indicate the recorded EC50 value for this compound: COc1ccc(C(=O)Nc2nc(-c3ccccn3)cs2)cc1
[A] 9200

[Q] Answer with the recorded EC50 for the compound listed here: Cc1ccc(C(=O)Nc2nc(-c3ccccn3)cs2)cc1
[A] 10500

[Q] Quick one: give measured EC50 for O=C(Nc1nc(-c2ccccn2)cs1)c1ccc(OCc2ccccc2)cc1
[A] 2300

[Q] # return recorded EC50 for input Cc1cccc(C(=O)Nc2nc(-c3ccccn3)cs2)c1
[A] 4100

[Q] Fill in reported EC50 for this entry: O=C(Nc1nc(-c2ccccn2)cs1)c1ccc(F)cc1
[A] 2500

[Q] # return recorded EC50 for entry O=C(Nc1nc(-c2ccccn2)cs1)c1c(F)cccc1Cl
[A] 1300

[Q] Given the compound O=C(Nc1nc(-c2ccccn2)cs1)c1ccc(Br)cc1 , write its reported EC50.
[A] 4700

[Q] Kindly indicate its recorded EC50. Item: COc1cccc(C(=O)Nc2nc(-c3ccccn3)cs2)c1
[A] 2800

[Q] Provide measured EC50 value, entry: O=C(Nc1nc(-c2ccccn2)cs1)c1cccnc1Cl
[A] 1900

[Q] Read off the recorded EC50 for O=C(Nc1nc(-c2ccccn2)cs1)c1cccc(F)c1
[A] 1200

[Q] Please report EC50 for the following compound: Cc1ccccc1C(=O)Nc1nc(-c2ccccn2)cs1
[A] 6300

[Q] Determine from records and report EC50 for O=C(Nc1nc(-c2ccccn2)cs1)c1ccccn1
[A] 5400

[Q] Retrieve EC50 measured for O=C(Nc1nc(-c2ccccn2)cs1)c1cccc(Br)c1 and print it.
[A] 16100

[Q] Given O=C(Nc1nc(-c2ccccn2)cs1)c1cc(F)cc(F)c1 , respond with its EC50.
[A] 1500

---

Please provide measured MIC99 for the entries that follow.
System: Mycobacterium tuberculosis
Experiment: Antitubercular activity against Mycobacterium tuberculosis H37Rv in Middlebrook 7H9 broth with glucose after 7 to 14 days by broth microdilution method
Format: functional
Give just the numeric value; µM need not be written.

[Q] Write down MIC99 measured for item O=C(Nc1nc(-c2ccccn2)cs1)c1ccccc1O
[A] 1.6

[Q] Indicate its recorded MIC99; the compound in question is O=C(Nc1nc(-c2ccccn2)cs1)c1cccc(F)c1F
[A] 0.39

[Q] State its MIC99: O=C(Nc1nc(-c2ccccn2)cs1)c1ccc(F)cc1
[A] 0.39

[Q] Tell me its MIC99 given O=C(Nc1nc(-c2ccccn2)cs1)c1ccc(F)cc1F as the entry.
[A] 0.39

[Q] Please give measured MIC99 of the following entry: Cc1ccc(Nc2nc(-c3ccccn3)cs2)c(C)c1
[A] 12.5
